System: Pseudomonas aeruginosa TI-13-1
Protocol description: MIC, standard serial dilution method
Assay type: cell-based
Assay setup: Pseudomonas aeruginosa, TI131; P. aeruginosa TI-13-1; nutrient agar, 37°C, 18 hours; read-out: Minimal inhibitory concentration
Readout kind: MIC

NC[C@@H]1O[C@H](O[C@H]2[C@@H](O)[C@H](O[C@@H]3[C@@H](O)[C@H](N)C[C@H](N)[C@H]3O[C@H]3O[C@H](CO)[C@@H](O)C[C@H]3N)O[C@@H]2CO)[C@H](N)[C@@H](O)[C@@H]1O [LVB, lividomycin B, reference compound] : > 100 µg/mL
NC[C@@H]1O[C@H](O[C@H]2[C@@H](O)[C@H](O[C@@H]3[C@@H](O)[C@H](N)C[C@H](N)[C@H]3O[C@H]3O[C@H](CNCCO)[C@@H](O)C[C@H]3N)O[C@@H]2CO)[C@H](N)[C@@H](O)[C@@H]1O : > 100 µg/mL
NC[C@@H]1O[C@H](O[C@H]2[C@@H](O)[C@H](O[C@@H]3[C@@H](O)[C@H](N)C[C@H](N)[C@H]3O[C@H]3O[C@H](CN)[C@@H](O)C[C@H]3N)O[C@@H]2CO)[C@H](N)[C@@H](O)[C@@H]1O : 100 µg/mL
CNC[C@H]1O[C@H](O[C@H]2[C@H](O[C@@H]3O[C@H](CO)[C@@H](O[C@H]4O[C@@H](CN)[C@@H](O)[C@H](O)[C@H]4N)[C@H]3O)[C@@H](O)[C@H](N)C[C@@H]2N)[C@H](N)C[C@@H]1O : > 100 µg/mL

---

Parameter: MIC. Scope: all listed entries.
System: Sarcina lutea PCI 1001
Readout kind: MIC (µg/mL)

NC[C@@H]1O[C@H](O[C@H]2[C@@H](O)[C@H](O[C@@H]3[C@@H](O)[C@H](N)C[C@H](N)[C@H]3O[C@H]3O[C@H](CO)[C@@H](O)C[C@H]3N)O[C@@H]2CO)[C@H](N)[C@@H](O)[C@@H]1O [LVB, lividomycin B, reference compound] : 1.56
NC[C@@H]1O[C@H](O[C@H]2[C@@H](O)[C@H](O[C@@H]3[C@@H](O)[C@H](N)C[C@H](N)[C@H]3O[C@H]3O[C@H](CNCCO)[C@@H](O)C[C@H]3N)O[C@@H]2CO)[C@H](N)[C@@H](O)[C@@H]1O : 25
CNC[C@H]1O[C@H](O[C@H]2[C@H](O[C@@H]3O[C@H](CO)[C@@H](O[C@H]4O[C@@H](CN)[C@@H](O)[C@H](O)[C@H]4N)[C@H]3O)[C@@H](O)[C@H](N)C[C@@H]2N)[C@H](N)C[C@@H]1O : 6.25
NC[C@@H]1O[C@H](O[C@H]2[C@@H](O)[C@H](O[C@@H]3[C@@H](O)[C@H](N)C[C@H](N)[C@H]3O[C@H]3O[C@H](CN)[C@@H](O)C[C@H]3N)O[C@@H]2CO)[C@H](N)[C@@H](O)[C@@H]1O : 0.78

---

Entries annotated with measured MIC
Test system: Pseudomonas aeruginosa A 3
Protocol description: MIC, standard serial dilution method
Assay type: cell-based
Assay setup: Pseudomonas aeruginosa, A3, 18 h, read-out: Minimal inhibitory concentration
Readout kind: MIC (µg/mL)

NC[C@@H]1O[C@H](O[C@H]2[C@@H](O)[C@H](O[C@@H]3[C@@H](O)[C@H](N)C[C@H](N)[C@H]3O[C@H]3O[C@H](CO)[C@@H](O)C[C@H]3N)O[C@@H]2CO)[C@H](N)[C@@H](O)[C@@H]1O [LVB, lividomycin B, reference compound] : 6.25
NC[C@@H]1O[C@H](O[C@H]2[C@@H](O)[C@H](O[C@@H]3[C@@H](O)[C@H](N)C[C@H](N)[C@H]3O[C@H]3O[C@H](CNCCO)[C@@H](O)C[C@H]3N)O[C@@H]2CO)[C@H](N)[C@@H](O)[C@@H]1O [HALVB] : 6.25
NC[C@@H]1O[C@H](O[C@H]2[C@@H](O)[C@H](O[C@@H]3[C@@H](O)[C@H](N)C[C@H](N)[C@H]3O[C@H]3O[C@H](CN)[C@@H](O)C[C@H]3N)O[C@@H]2CO)[C@H](N)[C@@H](O)[C@@H]1O [ALVB, 6'-amino-6'-deoxylividomycin B] : 1.56
CNC[C@H]1O[C@H](O[C@H]2[C@H](O[C@@H]3O[C@H](CO)[C@@H](O[C@H]4O[C@@H](CN)[C@@H](O)[C@H](O)[C@H]4N)[C@H]3O)[C@@H](O)[C@H](N)C[C@@H]2N)[C@H](N)C[C@@H]1O [MALVB, 6'-deoxy-6'-methylaminolividomycin B] : 3.12
